A short record of IC50 observed with UniProt P21964 follows.
Sequence (P21964 51-271): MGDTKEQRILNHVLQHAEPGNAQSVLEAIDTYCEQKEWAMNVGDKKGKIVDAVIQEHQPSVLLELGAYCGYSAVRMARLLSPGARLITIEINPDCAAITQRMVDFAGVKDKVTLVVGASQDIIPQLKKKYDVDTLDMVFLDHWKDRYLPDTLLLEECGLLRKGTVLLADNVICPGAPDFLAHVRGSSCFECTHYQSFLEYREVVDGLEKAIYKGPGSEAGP
Result Type: IC50 (nM)

[[record]]
compound = "O=C(O)Cc1cc2c([N+](=O)[O-])c(O)c(O)cc2oc1=O [Example 11(c)]"
reported = 10

[[record]]
compound = "Cc1c(CC(=O)O)c(=O)oc2cc(O)c(O)c([N+](=O)[O-])c12 [Example 13(c)]"
reported = 60

[[record]]
compound = "O=c1oc2cc(O)c(O)c([N+](=O)[O-])c2cc1-c1nnn[nH]1 [Example 12(b)]"
reported = 10

[[record]]
compound = "O=C(O)c1cc2c([N+](=O)[O-])c(O)c(O)cc2oc1=O [Example 9(c)]"
reported = 20

[[record]]
compound = "O=c1oc2cc(O)c(O)c([N+](=O)[O-])c2c2c1CCCC2 [Example 8]"
reported = 50


Provenance of the data: patent US6951870B2
